measured.target: RAC-alpha serine/threonine-protein kinase (Homo sapiens)
Sequence (P31749 whole entry): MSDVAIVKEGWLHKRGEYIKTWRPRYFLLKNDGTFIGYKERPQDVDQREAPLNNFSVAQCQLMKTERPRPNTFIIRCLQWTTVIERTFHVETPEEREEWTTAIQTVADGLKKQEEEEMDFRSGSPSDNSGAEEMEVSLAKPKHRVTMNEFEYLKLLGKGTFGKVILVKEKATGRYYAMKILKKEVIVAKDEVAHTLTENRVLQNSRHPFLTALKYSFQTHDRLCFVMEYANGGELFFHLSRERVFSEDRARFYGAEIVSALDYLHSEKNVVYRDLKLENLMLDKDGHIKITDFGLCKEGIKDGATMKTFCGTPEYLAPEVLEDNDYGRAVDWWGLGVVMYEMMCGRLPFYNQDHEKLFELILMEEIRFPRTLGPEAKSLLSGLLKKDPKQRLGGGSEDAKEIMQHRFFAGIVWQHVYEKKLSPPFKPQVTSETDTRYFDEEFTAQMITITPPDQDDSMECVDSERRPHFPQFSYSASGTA
assay: Inhibition of Akt using RPRTSSF peptide and [gamma32]ATP at 0.625 uM by cell-free radioactive assay relative to control
Where a SMILES comes first, the peptide text is derived from it. [ ]: non-standard residue; d: D form. Gly(N-(CH2)6NH2) = NCCCCCCNCC(=O)O; Gly(N(CH2)3NH2) = NCCCNCC(=O)O; hLeu = CC(C)CC[C@H](N)C(=O)O; Nva = CCC[C@H](N)C(=O)O; Dap = NC[C@H](N)C(=O)O; Nlys = NCCCCNCC(=O)O
observable: inhibition (%)

molecule="CCC[C@H](NC(=O)[C@H](CCCNC(=N)N)NC(=O)CN(CCCN)C(=O)[C@@H](N)CCCNC(=N)N)C(=O)N[C@@H](Cc1ccc(O)cc1)C(=O)N[C@@H](CN)C(=O)N[C@@H](CCC(C)C)C(=O)N(CCCCN)CC(N)=O (H-R[Gly(N(CH2)3NH2)]R[Nva]Y[Dap][hLeu][Nlys]-NH2)" observable=inhibition unit_info=% reported_result=96
molecule="CCC[C@H](NC(=O)[C@H](CCCNC(=N)N)NC(=O)CN(CCCCCCN)C(=O)[C@@H](N)CCCNC(=N)N)C(=O)N[C@@H](Cc1ccc(O)cc1)C(=O)N[C@@H](CN)C(=O)N[C@@H](CCC(C)C)C(=O)N(CCCCN)CC(N)=O (H-R[Gly(N-(CH2)6NH2)]R[Nva]Y[Dap][hLeu][Nlys]-NH2)" observable=inhibition unit_info=% reported_result=88
